Data origin, for the record: patent US20040096855A1

Test system: Colo 829
Assay: Inhibition of cell growth, sulphorhodamine B staining
Format: cell-based, human
Conditions: Colo 829 melanoma cells (BRAF V599E)
readout.type: IC50 (µM)
Numeric only. Scale: µM

IC50 value, target or system Colo 829, for CNC(=O)c1cc(Oc2ccc(NC(=O)Nc3ccc(Cl)c(C(F)(F)F)c3)cc2)ccn1 : 5.1
